# System: MCF7 breast
# ASSAY: NCI tumour cell line growth inhibition, 48 h
RECORDED METRIC: TGI

Some entries whose results are on file:
COMPOUND	RECORDED METRIC	RECORDED MEASUREMENT
O=c1[nH]/c(=C/c2ccc(OCc3ccccc3)cn2)c(=O)[nH]/c1=C/c1ccccc1	TGI	> 100 µM
C/C(=N/O)c1cccc(Nc2cc(-n3nnc4ccccc43)nc3ccccc23)c1	TGI	> 55.6 µM
CCSCCCSCCSCC	TGI	> 100 µM
CN(C)c1cc2ccccc2oc1=O	TGI	> 100 µM

Query: Read the entry COc1cc2c(c(O)c1O)C(=O)C1CCC(=O)N1C2c1cccc2ccccc12 (stereo not given) and write its reported TGI.
Reply: > 50 µM

Query: Read the entry "COc1cc(C)ccc1C(=O)c1ccc(C)cc1OC" and write its reported TGI.
Reply: > 100 µM

---

Reported TGI by item:
# Test system: MDA-MB-435
# ASSAY: NCI tumour cell line growth inhibition, 48 h

Some entries whose results are on file:
MOLECULE	RECORDED METRIC	RECORDED MEASUREMENT
O=c1[nH]c(Nc2ccccc2)nc2c1ncn2CC(O)CSCCO (centres undefined)	TGI	> 100 µM
COc1cc(C2c3c(ccc4ccccc34)C(=O)C3CCC(=O)N32)cc(OC)c1OC (centres undefined)	TGI	> 50 µM
CNC(=S)Nc1ccc(OC)c2ccccc12	TGI	> 10 µM

With those in mind, consider the next molecule.
Query: Read the entry "C/C(CC(O)(C(F)(F)F)C(F)(F)F)=N\NC(N)=O" and write its reported TGI.
Reply: > 10 µM

---

# Test system: IGROV1 ovarian
# ASSAY: NCI tumour cell line growth inhibition, 48 h
RECORDED METRIC: TGI

Some entries whose results are on file:
COMPOUND	TARGET OF ASSAY	TGI
Nc1nc2ccc(-c3nc4ccc5[nH]ncc5c4c4c3CCC4)cc2s1	IGROV1 ovarian	8.66 µM
Clc1ccc(-c2cn3ccnc3c(-c3ccc(Cl)cc3)n2)cc1	IGROV1 ovarian	> 100 µM
N=C1C(O)C2(I)c3ccccc3N3C(=N)C(O)C4c5ccccc5N1C4C32 (stereo not drawn)	IGROV1 ovarian	> 100 µM
Cc1ccc(C(=N)c2ccccc2Cc2cccc3ccccc23)c2ccccc12	IGROV1 ovarian	> 100 µM
C[C@@H]1OC(=O)C[C@H]2CC(=O)N(CCC3CN(C(=O)OCc4ccccc4)c4ccccc43)C[C@@H]21 (stereo partly drawn)	IGROV1 ovarian	> 100 µM

Query: Read the entry CCC1(O)C(=O)OCc2c1cc1n(c2=O)Cc2cc3ccccc3nc2-1 (stereo not drawn) and write its reported TGI.
Reply: 5.96 µM

Query: Read the entry CN1N=CSC12C(=O)N(c1ccccc1)C(=O)N2c1ccccc1 (stereo not drawn) and write its reported TGI.
Reply: > 100 µM

Query: Read the entry "O=c1oc2ccccc2c2c1Sc1ccccc1N2" and write its reported TGI.
Reply: > 100 µM

---

# Test system: A498 renal
# ASSAY: NCI tumour cell line growth inhibition, 48 h
RECORDED METRIC: TGI

Some entries whose results are on file:
COMPOUND	TGI
CCc1c(C#N)c(=O)[nH]c(=O)n1CCN1CCN(C(=O)NCCCCCCNC(=O)N2CCN(CCn3c(CC)c(C#N)c(=O)[nH]c3=O)CC2)CC1	> 100 µM
CCc1n[nH]c(=O)n1CCCCCCCCCCCCn1c(CC)n[nH]c1=O	> 100 µM
Cc1ccc(S(=O)(=O)SC/C=C\CSS(=O)(=O)c2ccc(C)cc2)cc1	> 100 µM
CCOC(=O)c1c(C)n(Cc2ccc(Cl)cc2Cl)c2c1cc(O)c1[nH]c3c(c12)CCCC3	38.6 µM

Query: Read the entry "O=c1cc(-c2cccs2)[nH]c2cc3c(cc12)OCO3" and write its reported TGI.
Reply: 16.2 µM

Query: Read the entry "Cc1ccc(S(=O)(=O)NC(=O)Nc2nnc(S(N)(=O)=O)s2)cc1" and write its reported TGI.
Reply: > 100 µM

Query: Read the entry "IC[P+]1(c2ccccc2)CCCC1" and write its reported TGI.
Reply: 88.6 µM
